- system tested: Serine protease 1 (Bos taurus)
- protocol description: Inhibition against Trypsin
test readout: Ki (µM)

smiles record: COc1ccccc1NC(=N)N
result: 881
//
smiles record: NC(N)=Nc1ccccc1Cl
result: 898
//
smiles record: N=C(N)Nc1ccccc1N
result: 1180

====

- system tested: Urokinase-type plasminogen activator (Homo sapiens, UniProt P00749)
- protocol description: log1/Ki value was calculated against Urokinase-type plasminogen activator
- measurement context: read-out: Log 1/Ki (converted)
test readout: Ki (µM)

Known Ki results, listed for orientation:
smiles record: COc1ccc(NC(=N)N)cc1
system tested: Urokinase-type plasminogen activator (Homo sapiens, UniProt P00749)
result: 676

smiles record: NC(N)=Nc1ccccc1Cl
system tested: Urokinase-type plasminogen activator (Homo sapiens, UniProt P00749)
result: 103

smiles record: NC(N)=Nc1cccc(C(F)(F)F)c1
system tested: Urokinase-type plasminogen activator (Homo sapiens, UniProt P00749)
result: 419

smiles record: CCc1ccc(NC(=N)N)cc1
system tested: Urokinase-type plasminogen activator (Homo sapiens, UniProt P00749)
result: 90.8

smiles record: N=C(N)Nc1ccc(C(F)(F)F)cc1
system tested: Urokinase-type plasminogen activator (Homo sapiens, UniProt P00749)
result: 6.49

smiles record: N=C(N)Nc1ccc(/C=C/C(=O)O)cc1
system tested: Urokinase-type plasminogen activator (Homo sapiens, UniProt P00749)
result: 1320

smiles record: N=C(N)Nc1ccc(C(=O)O)cc1
system tested: Urokinase-type plasminogen activator (Homo sapiens, UniProt P00749)
result: 745

smiles record: NC(N)=Nc1ccccc1[N+](=O)[O-]
system tested: Urokinase-type plasminogen activator (Homo sapiens, UniProt P00749)
result: 54.3

1 = N=C(N)Nc1ccc(Cl)cc1
2 = N=C(N)Nc1ccccc1N
Q: Return label of the item with the larger Ki. Candidates: 1 , 2 . Your choice should be expressed through its label.
Result: 2

====

- system tested: Serine protease 1 (Bos taurus, UniProt P00760)
- Sequence (P00760 whole entry): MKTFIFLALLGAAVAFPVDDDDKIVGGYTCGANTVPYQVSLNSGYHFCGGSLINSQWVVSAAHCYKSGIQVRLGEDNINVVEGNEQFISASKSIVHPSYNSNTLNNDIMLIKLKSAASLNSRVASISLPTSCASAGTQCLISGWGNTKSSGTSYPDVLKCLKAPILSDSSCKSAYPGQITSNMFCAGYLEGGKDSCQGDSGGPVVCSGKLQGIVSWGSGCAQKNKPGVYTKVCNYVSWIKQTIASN
- protocol description: log1/Ki value was calculated against Trypsin
- measurement context: read-out: Log 1/Ki (converted)
test readout: Ki (µM)

smiles record: COC(=O)c1ccc(NC(=N)N)cc1
system tested: Serine protease 1 (Bos taurus, UniProt P00760)
unit symbol: µM
Ki: 652

a = N=C(N)Nc1ccc(F)cc1
b = N=C(N)Nc1ccccc1N
c = NC(N)=Nc1cccc(C(F)(F)F)c1
Q: Give the ascending ranking of the items by reported Ki. Please respond by ranking the labels in the order requested.
Result: a, b, c
(a: 807 µM, b: 1180 µM, c: 10700 µM)

====

- system tested: UniProt P00749
- protocol description: Inhibition against Urokinase-type plasminogen activator
test readout: Ki (µM)

Example compounds with recorded Ki:
smiles record: NC(N)=Nc1ccccc1Cl
unit symbol: µM
Ki: 103

smiles record: N=C(N)Nc1ccc(/C=C/C(=O)O)cc1
unit symbol: µM
Ki: 1330

a = COC(=O)c1ccc(NC(=N)N)cc1
b = N=C(N)Nc1ccc(F)cc1
c = N=C(N)Nc1ccc(Br)cc1
d = COc1ccccc1NC(=N)N
Q: Ordering: ascending Ki. Write the labels in rank order as requested.
Result: c, b, d, a
(c: 30.7 µM, b: 72.4 µM, d: 136 µM, a: 1450 µM)
